target_under_test: HLA-B*40:01
protocol_notes: IEDB peptide-MHC binding, purified MHC/direct/fluorescence; filed as Kd, often an IC50 or EC50 that approximates it; bounds were set here for any values at or beyond the usual limits of such assays
test_settings: source organism: Influenza A virus (A/Hong Kong/485/1997(H5N1))
pKd: −log10 of the molar value.
endpoint: pKd

Reported pKd for QMRDVLGTF was ≤ 4.70

====

target_under_test: HLA-B*40:01
protocol_notes: IEDB peptide-MHC binding, purified MHC/competitive/radioactivity; filed as Kd, often an IC50 or EC50 that approximates it; bounds were set here for any values at or beyond the usual limits of such assays
test_settings: source organism: Dengue virus 3 Martinique/1243/1999
The sequences listed here are annotated with their Kd.
I'd appreciate it if you included the unit after the number.

# entry_sequence, target_under_test, Kd
data = [
    ("KEENMVKSLV", "HLA-B*40:01", "243 nM"),
    ("GESNIVIGI", "HLA-B*40:01", "2.36 nM"),
    ("EEFLDYMPSM", "HLA-B*40:01", "142 nM"),
]

Reported Kd for VEIWTKEGEK was 754 nM

Reported Kd for VEPWLKNNQF was 1620 nM

====

target_under_test: HLA-B*40:13
protocol_notes: IEDB peptide-MHC binding, purified MHC/competitive/fluorescence; filed as Kd, often an IC50 or EC50 that approximates it; bounds were set here for any values at or beyond the usual limits of such assays
test_settings: source organism: Rickettsia felis URRWXCal2
endpoint: Kd (nM)
Give your result in nM as a bare value.

Reported Kd for FMYALSRAF was 4.5

====

target_under_test: HLA-A*32:01
protocol_notes: IEDB peptide-MHC binding, purified MHC/competitive/radioactivity; filed as Kd, often an IC50 or EC50 that approximates it; bounds were set here for any values at or beyond the usual limits of such assays
test_settings: source organism: Mammarenavirus lassaense
endpoint: Kd (nM)
Give your result in nM as a bare value.

Reported Kd for AAHSARPPPY was 2410

====

target_under_test: HLA-A*02:02
protocol_notes: IEDB peptide-MHC binding, purified MHC/competitive/radioactivity; filed as Kd, often an IC50 or EC50 that approximates it; bounds were set here for any values at or beyond the usual limits of such assays
test_settings: source organism: Lassa virus Josiah
The sequences listed here are annotated with their Kd.
Give your result in µM as a bare value.

Reported Kd for IISTFHLSI was 0.236

Reported Kd for NLYDHALMSI was 0.00175

====

target_under_test: HLA-A*30:01
protocol_notes: IEDB peptide-MHC binding, purified MHC/competitive/fluorescence; filed as Kd, often an IC50 or EC50 that approximates it; bounds were set here for any values at or beyond the usual limits of such assays
test_settings: source organism: Vibrio vulnificus YJ016
endpoint: Kd

Reported Kd for IVAQGIAAL was ≥ 20 µM

====

target_under_test: HLA-B*57:01
protocol_notes: IEDB peptide-MHC binding, purified MHC/competitive/fluorescence; filed as Kd, often an IC50 or EC50 that approximates it; bounds were set here for any values at or beyond the usual limits of such assays
test_settings: source organism: Camelpox virus CMS
pKd: −log10 of the molar value.
endpoint: pKd

Reported pKd for WVIDTLNGI was ≤ 4.70

====

target_under_test: HLA-A*02:06
protocol_notes: IEDB peptide-MHC binding, purified MHC/competitive/radioactivity; filed as Kd, often an IC50 or EC50 that approximates it; bounds were set here for any values at or beyond the usual limits of such assays
test_settings: source organism: SARS coronavirus Tor2
endpoint: pKd
Kindly note that pKd refers to -log10 of the concentration in mol/L and answer with the value alone.

Reported pKd for AQMGTLLIA was 9.35

Reported pKd for ALVSGTATA was 6.57

Reported pKd for LLVTLAILTA was 7.49

Reported pKd for ILASFSAST was 6.34
